# Run description: Inhibition of PI3Kbeta human in PTEN wild type HCC1954 cells assessed as cell growth inhibition
Measurement type: pEC50
Here pEC50 is given on a logarithmic scale as minus log10 of the concentration in mol/L.

// below: answered compounds
{"columns": ["Structure notation", "pEC50"],
 "data": [
  ["Cc1c(Cc2cnn3c(O)cc(N4CCOCC4)nc23)cccc1C(F)(F)F", 4.80],
  ["Cc1nn2c(NC(N)=O)cc(N3CCOCC3)nc2c1Cc1cccc(C(F)(F)F)c1C", 4.90],
  ["Cc1nn2c(O)cc(N3CCOCC3)nc2c1Cc1cccc2ccccc12", 4.50]
]}

Consider the compound Cc1nn2c(N)cc(N3CCOCC3)nc2c1Cc1cccc(C(F)(F)F)c1C and give its measured pEC50.
4.90

Consider next the compound Cc1nn2c(O)cc(C3CCOCC3)nc2c1Cc1cccc(C(F)(F)F)c1C in the same way.
4.60

Moving on to the next compound: Cc1nn2c(O)cc(N3CCOCC3)nc2c1Cc1cccc(C(F)(F)F)c1C
4.80
